molecular target: Cytochrome P450 2D6 (Homo sapiens); test: qHTS Assay for Inhibitors and Substrates of Cytochrome P450 2D6 (AID 891); conditions: recombinant CYP2D6, luciferin-ME EGE luminescence; series mostly up to 11.4 µM; note: nearly all actives have a fitted effect of over 60% in size
Results filed as inconclusive are left out. The source made the active and inactive calls. Calls come from the whole dose curve; as a rule, active = well fitted inhibition curve with a large enough effect; inconclusive = small, poorly fitted or top-dose-only effect; inactive = no such curve, though single readings can be large or run the other way.
Classes used: true (1) = active, false (0) = inactive

{"columns": ["molecule", "qualitativeLabel"],
 "data": [
  ["COc1c(O)ccc2c1CN1CCc3cc4c(cc3[C@@H]1C2)OCO4", "true (1)"],
  ["O[C@H](CNc1ccccn1)c1ccccc1", "true (1)"],
  ["CC1(C)N=C(N)N=C(N)N1c1cccc(CSc2ccccc2)c1", "true (1)"],
  ["Cc1ccc2ccccc2c1CSc1nc(N)nc2c1ncn2CC(C)C", "true (1)"],
  ["Cc1cc(SCC(=O)c2ccccc2)nc2ccccc12", "false (0)"],
  ["Sc1ccc2ccccc2c1CNCc1ccccc1", "true (1)"],
  ["Nc1ccccc1S[C@@H](C[N+](=O)[O-])c1ccc2c(c1)OCO2", "true (1)"],
  ["CN1C[C@@H](O)[C@@H](O)[C@@H](O)[C@@H]1CO", "false (0)"],
  ["C[N+]1(CCC(=O)c2ccco2)CC2CCC(CC2)C1 (stereo not given)", "false (0)"],
  ["N=C(N)SCc1ccc(Cl)cc1Cl (tested in a mixture with another compound)", "true (1)"],
  ["CN1CCc2cc(Cl)c(O)cc2[C@H](c2ccccc2)C1", "true (1)"],
  ["COc1ccccc1-c1nc(NCc2ccccc2)c2ccccc2n1", "true (1)"],
  ["Br/C(=N\\Nc1nn[nH]n1)c1ccncc1", "false (0)"],
  ["CN(C)CCCN1c2ccccc2Sc2ccc3ccccc3c21", "true (1)"],
  ["NNC(=O)CCc1ccc2ccc3ccccc3c2c1", "true (1)"],
  ["CCn1cc(C(=O)O)c(=O)c2ccc(Cc3ccccc3)nc21", "false (0)"],
  ["CSc1ncnc2c1ncn2CC(=O)[C@H]1CC[C@H]2[C@H]3CCC4=CC(=O)CC[C@@]4(C)[C@@H]3CC[C@@]12C", "false (0)"],
  ["NCCSCc1ccccc1Cl", "true (1)"],
  ["O=C(O)C1(C(=O)O)CCN(S(=O)(=O)c2ccccc2)CC1", "false (0)"],
  ["c1ccc(CSCCc2ccncc2)cc1", "true (1)"],
  ["NS(=O)(=O)c1cc(C(=O)O)c(Cl)c([N+](=O)[O-])c1Cl", "false (0)"],
  ["Oc1c([C@H](Nc2ccccn2)c2ccccc2)ccc2cccnc12", "true (1)"],
  ["CN(C)c1ncnc2c1ncn2CCn1cnc2c(N(C)C)ncnc21", "false (0)"],
  ["O=S(=O)(O)c1ccc(N=Nc2ccccc2)cc1", "false (0)"],
  ["N[C@H](CS(=O)O)C(=O)O", "false (0)"]
]}
